Source of measurements: the kinase profiling compilation of Christmann-Franck et al. (2016)

- Test system: KIT (human), P10721 [L576P]
- Sequence (P10721 whole entry L576P, looked up): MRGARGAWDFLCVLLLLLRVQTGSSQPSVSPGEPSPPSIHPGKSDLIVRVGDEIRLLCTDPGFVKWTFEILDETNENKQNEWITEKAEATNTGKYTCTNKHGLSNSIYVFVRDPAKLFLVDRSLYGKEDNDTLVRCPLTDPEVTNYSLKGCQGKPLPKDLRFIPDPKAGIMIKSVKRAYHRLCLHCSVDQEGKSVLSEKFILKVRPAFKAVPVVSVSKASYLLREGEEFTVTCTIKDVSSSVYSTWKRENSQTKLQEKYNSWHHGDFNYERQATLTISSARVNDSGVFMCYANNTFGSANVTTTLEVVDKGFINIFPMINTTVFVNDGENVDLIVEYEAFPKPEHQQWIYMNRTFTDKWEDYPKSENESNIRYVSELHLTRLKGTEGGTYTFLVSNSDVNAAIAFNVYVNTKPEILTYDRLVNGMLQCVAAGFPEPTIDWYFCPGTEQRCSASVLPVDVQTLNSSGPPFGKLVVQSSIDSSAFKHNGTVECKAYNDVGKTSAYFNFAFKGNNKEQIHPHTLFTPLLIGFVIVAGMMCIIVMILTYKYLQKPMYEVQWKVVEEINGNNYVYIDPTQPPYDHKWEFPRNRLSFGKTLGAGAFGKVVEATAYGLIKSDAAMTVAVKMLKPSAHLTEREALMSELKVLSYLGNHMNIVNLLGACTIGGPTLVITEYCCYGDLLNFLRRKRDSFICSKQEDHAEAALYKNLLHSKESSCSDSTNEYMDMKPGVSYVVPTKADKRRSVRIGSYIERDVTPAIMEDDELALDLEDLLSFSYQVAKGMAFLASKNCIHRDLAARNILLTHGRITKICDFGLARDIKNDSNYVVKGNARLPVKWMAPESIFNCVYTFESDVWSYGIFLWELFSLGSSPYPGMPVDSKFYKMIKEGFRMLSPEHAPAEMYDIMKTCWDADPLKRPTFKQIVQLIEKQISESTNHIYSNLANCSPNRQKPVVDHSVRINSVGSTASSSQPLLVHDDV
- assay notes: KINOMEscan competition binding
- reported conditions: compound 10.0 µM
assay endpoint: kinase still bound, per cent of control (%)
Dear colleague, please return just the value in %, with no unit written.

Entry COc1ccc(-c2ccc3c(N4CCOCC4)nc(N4C[C@@H](C)O[C@@H](C)C4)nc3n2)cc1CO , kinase still bound, per cent of control reported as 93

Sample CC(C)n1nc(-c2cc3cc(O)ccc3[nH]2)c2c(N)ncnc21 ; kinase still bound, per cent of control observed: 0.8

The compound CCC(=O)N1CCN(c2ccc(-n3c(=O)ccc4cnc5ccc(-c6cnc7ccccc7c6)cc5c43)cc2C(F)(F)F)CC1 showed kinase still bound, per cent of control equal to 48

Briefly, kinase still bound, per cent of control measured for COC(=O)Nc1ccc(-c2nc(N3CCOCC3)c3cnn(C4CCN(C(=O)OC)CC4)c3n2)cc1 : 100

* * *

What per cent of control was measured for each of the following?
- measurement target: MAP2K1 (human) (UniProt Q02750)
- Sequence (Q02750 whole entry, looked up): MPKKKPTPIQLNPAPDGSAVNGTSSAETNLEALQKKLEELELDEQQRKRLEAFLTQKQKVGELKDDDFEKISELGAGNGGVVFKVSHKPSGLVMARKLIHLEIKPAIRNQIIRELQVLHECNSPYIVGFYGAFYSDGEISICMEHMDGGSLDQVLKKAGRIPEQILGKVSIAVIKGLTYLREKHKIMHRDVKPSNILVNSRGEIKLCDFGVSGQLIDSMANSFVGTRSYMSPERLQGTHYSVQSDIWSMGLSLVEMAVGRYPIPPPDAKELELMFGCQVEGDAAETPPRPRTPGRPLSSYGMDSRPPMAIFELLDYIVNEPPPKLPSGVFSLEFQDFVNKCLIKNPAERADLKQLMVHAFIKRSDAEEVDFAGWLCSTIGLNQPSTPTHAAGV
- reported conditions: compound 1.0 µM

Please fill in: per cent of control reported for COC(=O)Nc1ccc(-c2nc(N3CCOCC3)c3cnn(C4CCN(C(=O)OC)CC4)c3n2)cc1 = 82%

compound CC(C)n1nc(-c2cc3cc(O)ccc3[nH]2)c2c(N)ncnc21 , per cent of control observed: 25%

Notebook: CCC(=O)N1CCN(c2ccc(-n3c(=O)ccc4cnc5ccc(-c6cnc7ccccc7c6)cc5c43)cc2C(F)(F)F)CC1 , per cent of control read as 69%

Recorded result, COc1ccc(-c2ccc3c(N4CCOCC4)nc(N4C[C@@H](C)O[C@@H](C)C4)nc3n2)cc1CO , per cent of control: 96%

* * *

- measurement target: UniProt:Q13153
- Sequence (Q13153 whole entry, looked up): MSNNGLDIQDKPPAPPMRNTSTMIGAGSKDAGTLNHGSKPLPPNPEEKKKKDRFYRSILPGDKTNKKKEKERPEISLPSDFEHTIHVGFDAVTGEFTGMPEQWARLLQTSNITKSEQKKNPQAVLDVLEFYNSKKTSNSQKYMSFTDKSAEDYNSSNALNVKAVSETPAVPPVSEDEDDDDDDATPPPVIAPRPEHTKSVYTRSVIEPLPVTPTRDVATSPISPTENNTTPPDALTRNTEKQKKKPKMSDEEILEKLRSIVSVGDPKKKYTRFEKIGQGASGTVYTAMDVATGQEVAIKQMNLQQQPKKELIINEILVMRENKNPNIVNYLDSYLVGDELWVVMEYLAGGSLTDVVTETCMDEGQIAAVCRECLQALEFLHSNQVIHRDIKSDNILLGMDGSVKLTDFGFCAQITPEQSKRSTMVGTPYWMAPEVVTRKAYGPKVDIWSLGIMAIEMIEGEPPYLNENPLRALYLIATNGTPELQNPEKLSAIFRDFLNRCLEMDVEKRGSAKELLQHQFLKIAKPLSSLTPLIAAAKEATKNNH
- assay notes: KINOMEscan competition binding
- reported conditions: compound 10.0 µM
Task for the reader: assign each of the following molecules its reported kinase still bound, per cent of control.
Give a bare numeral; the unit % is implied.

The measured kinase still bound, per cent of control associated with CCC(=O)N1CCN(c2ccc(-n3c(=O)ccc4cnc5ccc(-c6cnc7ccccc7c6)cc5c43)cc2C(F)(F)F)CC1 reads 73

Memo: COc1ccc(-c2ccc3c(N4CCOCC4)nc(N4C[C@@H](C)O[C@@H](C)C4)nc3n2)cc1CO , reported kinase still bound, per cent of control: 84

Entry COC(=O)Nc1ccc(-c2nc(N3CCOCC3)c3cnn(C4CCN(C(=O)OC)CC4)c3n2)cc1 — recorded kinase still bound, per cent of control = 95

Consider CC(C)n1nc(-c2cc3cc(O)ccc3[nH]2)c2c(N)ncnc21 . Its measured kinase still bound, per cent of control is 52

* * *

- measurement target: DYRK3 (human) (UniProt O43781)
- Sequence (O43781 whole entry, looked up): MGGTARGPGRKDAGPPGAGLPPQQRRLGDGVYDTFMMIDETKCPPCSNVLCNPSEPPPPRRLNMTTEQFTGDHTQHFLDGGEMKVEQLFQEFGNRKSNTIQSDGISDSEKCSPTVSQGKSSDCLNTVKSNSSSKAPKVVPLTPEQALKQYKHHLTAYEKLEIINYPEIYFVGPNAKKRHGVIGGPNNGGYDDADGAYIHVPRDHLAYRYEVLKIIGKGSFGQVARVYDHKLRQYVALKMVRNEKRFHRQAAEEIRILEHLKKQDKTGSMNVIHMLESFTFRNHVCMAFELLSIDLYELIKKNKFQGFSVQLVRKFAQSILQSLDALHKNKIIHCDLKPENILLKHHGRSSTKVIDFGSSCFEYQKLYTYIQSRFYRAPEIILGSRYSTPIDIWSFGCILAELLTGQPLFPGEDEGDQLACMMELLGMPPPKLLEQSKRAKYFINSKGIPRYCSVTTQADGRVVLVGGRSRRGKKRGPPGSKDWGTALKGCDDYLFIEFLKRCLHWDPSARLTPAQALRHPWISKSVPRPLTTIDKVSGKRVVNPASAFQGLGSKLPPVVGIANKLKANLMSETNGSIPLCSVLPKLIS
- reported conditions: compound 1.0 µM
Give measured per cent of control for each item. Keep answers brief.
Answer in %, number only, no unit symbol.

Recorded per cent of control (compound COC(=O)Nc1ccc(-c2nc(N3CCOCC3)c3cnn(C4CCN(C(=O)OC)CC4)c3n2)cc1 ): 84

Notebook: CC(C)n1nc(-c2cc3cc(O)ccc3[nH]2)c2c(N)ncnc21 , per cent of control read as 10

What the record says about CCC(=O)N1CCN(c2ccc(-n3c(=O)ccc4cnc5ccc(-c6cnc7ccccc7c6)cc5c43)cc2C(F)(F)F)CC1 : per cent of control is 88

Lab book: per cent of control of COc1ccc(-c2ccc3c(N4CCOCC4)nc(N4C[C@@H](C)O[C@@H](C)C4)nc3n2)cc1CO noted as 88

* * *

- measurement target: IGF1R (human)
- reported conditions: compound 10.0 µM
assay endpoint: per cent of control (%)
Express your answer in %, writing the number without its unit.

Assay IGF1R (human), sample COc1ccc(-c2ccc3c(N4CCOCC4)nc(N4C[C@@H](C)O[C@@H](C)C4)nc3n2)cc1CO , per cent of control read: 89

Hey, IGF1R (human) data for COC(=O)Nc1ccc(-c2nc(N3CCOCC3)c3cnn(C4CCN(C(=O)OC)CC4)c3n2)cc1 : per cent of control came out at 101

Summary line: CCC(=O)N1CCN(c2ccc(-n3c(=O)ccc4cnc5ccc(-c6cnc7ccccc7c6)cc5c43)cc2C(F)(F)F)CC1 , IGF1R (human), reported per cent of control = 93

So the reported per cent of control for CC(C)n1nc(-c2cc3cc(O)ccc3[nH]2)c2c(N)ncnc21 , on IGF1R (human), turned out to be 89

* * *

- measurement target: UniProt Q96PY6
- Sequence (Q96PY6 whole entry, looked up): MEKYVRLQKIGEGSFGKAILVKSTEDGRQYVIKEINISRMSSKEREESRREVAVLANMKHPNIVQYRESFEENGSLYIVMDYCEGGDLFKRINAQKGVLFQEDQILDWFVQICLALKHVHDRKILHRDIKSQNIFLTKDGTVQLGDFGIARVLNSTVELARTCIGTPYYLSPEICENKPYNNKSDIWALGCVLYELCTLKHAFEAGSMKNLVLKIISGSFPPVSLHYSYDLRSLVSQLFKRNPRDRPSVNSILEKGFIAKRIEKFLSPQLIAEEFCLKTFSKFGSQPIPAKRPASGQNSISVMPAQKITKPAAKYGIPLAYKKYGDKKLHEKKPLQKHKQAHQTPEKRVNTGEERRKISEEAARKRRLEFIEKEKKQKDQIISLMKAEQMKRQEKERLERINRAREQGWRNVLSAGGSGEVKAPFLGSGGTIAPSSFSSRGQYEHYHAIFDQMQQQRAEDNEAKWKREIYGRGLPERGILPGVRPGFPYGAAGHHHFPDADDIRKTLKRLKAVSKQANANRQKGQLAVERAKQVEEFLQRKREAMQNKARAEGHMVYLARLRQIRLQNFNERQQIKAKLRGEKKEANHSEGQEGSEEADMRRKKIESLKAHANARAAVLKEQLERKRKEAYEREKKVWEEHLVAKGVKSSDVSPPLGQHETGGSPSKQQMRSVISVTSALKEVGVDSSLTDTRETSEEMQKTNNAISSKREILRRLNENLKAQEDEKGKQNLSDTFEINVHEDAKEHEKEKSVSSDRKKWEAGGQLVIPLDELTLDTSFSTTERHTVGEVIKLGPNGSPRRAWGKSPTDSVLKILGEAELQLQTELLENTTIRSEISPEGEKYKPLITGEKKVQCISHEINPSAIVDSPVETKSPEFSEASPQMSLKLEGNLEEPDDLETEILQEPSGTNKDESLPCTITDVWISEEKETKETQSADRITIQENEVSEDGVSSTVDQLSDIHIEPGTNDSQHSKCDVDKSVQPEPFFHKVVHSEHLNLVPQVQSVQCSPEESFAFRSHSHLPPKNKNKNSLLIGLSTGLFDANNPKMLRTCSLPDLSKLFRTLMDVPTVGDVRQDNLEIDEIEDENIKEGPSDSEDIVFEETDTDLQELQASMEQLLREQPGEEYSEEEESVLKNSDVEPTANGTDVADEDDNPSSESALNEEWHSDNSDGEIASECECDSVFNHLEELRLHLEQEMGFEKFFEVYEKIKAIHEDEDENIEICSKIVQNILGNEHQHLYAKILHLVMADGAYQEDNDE
- assay notes: KINOMEscan competition binding
- reported conditions: compound 10.0 µM
assay endpoint: kinase still bound, per cent of control (%)
Answer in %, number only, no unit symbol.

Data point: COC(=O)Nc1ccc(-c2nc(N3CCOCC3)c3cnn(C4CCN(C(=O)OC)CC4)c3n2)cc1 ; kinase still bound, per cent of control = 77

Item: CC(C)n1nc(-c2cc3cc(O)ccc3[nH]2)c2c(N)ncnc21 | kinase still bound, per cent of control: 61

# compound COc1ccc(-c2ccc3c(N4CCOCC4)nc(N4C[C@@H](C)O[C@@H](C)C4)nc3n2)cc1CO ; its kinase still bound, per cent of control = 100

Entry under test: CCC(=O)N1CCN(c2ccc(-n3c(=O)ccc4cnc5ccc(-c6cnc7ccccc7c6)cc5c43)cc2C(F)(F)F)CC1 . Its kinase still bound, per cent of control was 89

* * *

- measurement target: UniProt Q9H4B4
- Sequence (Q9H4B4 whole entry, looked up): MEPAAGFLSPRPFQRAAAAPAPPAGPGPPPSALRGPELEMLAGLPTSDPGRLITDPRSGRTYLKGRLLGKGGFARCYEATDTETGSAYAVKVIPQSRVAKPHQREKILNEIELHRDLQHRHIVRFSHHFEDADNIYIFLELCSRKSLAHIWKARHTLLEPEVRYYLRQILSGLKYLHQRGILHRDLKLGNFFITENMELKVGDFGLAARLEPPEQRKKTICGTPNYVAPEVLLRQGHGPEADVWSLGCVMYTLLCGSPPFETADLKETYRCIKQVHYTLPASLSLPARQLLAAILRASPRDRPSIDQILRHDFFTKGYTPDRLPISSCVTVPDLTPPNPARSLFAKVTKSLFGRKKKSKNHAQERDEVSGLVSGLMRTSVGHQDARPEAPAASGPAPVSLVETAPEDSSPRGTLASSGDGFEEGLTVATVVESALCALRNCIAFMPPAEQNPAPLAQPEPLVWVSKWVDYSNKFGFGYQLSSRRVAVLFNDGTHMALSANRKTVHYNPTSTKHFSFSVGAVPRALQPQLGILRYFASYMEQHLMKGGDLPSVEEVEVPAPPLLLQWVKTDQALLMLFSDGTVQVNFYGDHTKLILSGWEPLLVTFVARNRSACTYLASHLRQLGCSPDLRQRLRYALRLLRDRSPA
- assay notes: KINOMEscan competition binding
- reported conditions: compound 10.0 µM
assay endpoint: kinase still bound, per cent of control (%)
# unit: % | format: bare number

For this compound ( CCC(=O)N1CCN(c2ccc(-n3c(=O)ccc4cnc5ccc(-c6cnc7ccccc7c6)cc5c43)cc2C(F)(F)F)CC1 ), measured kinase still bound, per cent of control is 87

Looking up COc1ccc(-c2ccc3c(N4CCOCC4)nc(N4C[C@@H](C)O[C@@H](C)C4)nc3n2)cc1CO , I see its kinase still bound, per cent of control listed as 92

// kinase still bound, per cent of control lookup, compound = CC(C)n1nc(-c2cc3cc(O)ccc3[nH]2)c2c(N)ncnc21 , result: 33

kinase still bound, per cent of control measured on COC(=O)Nc1ccc(-c2nc(N3CCOCC3)c3cnn(C4CCN(C(=O)OC)CC4)c3n2)cc1 = 93

* * *

- System: PRKAA1 or PRKAA2 (rat)
- reported conditions: compound 1.0 µM; accession and sequence are those of the human protein
Record form. Attribute: per cent of control. Fill in for each entry.
I only need the number, in %, no unit after it.

# per cent of control of COc1ccc(-c2ccc3c(N4CCOCC4)nc(N4C[C@@H](C)O[C@@H](C)C4)nc3n2)cc1CO = 97

Per the record, CCC(=O)N1CCN(c2ccc(-n3c(=O)ccc4cnc5ccc(-c6cnc7ccccc7c6)cc5c43)cc2C(F)(F)F)CC1 has per cent of control of 78

Reported per cent of control ( CC(C)n1nc(-c2cc3cc(O)ccc3[nH]2)c2c(N)ncnc21 ) = 70

So for COC(=O)Nc1ccc(-c2nc(N3CCOCC3)c3cnn(C4CCN(C(=O)OC)CC4)c3n2)cc1 , the logged per cent of control turned out to be 78

* * *

Exercise: state measured kinase still bound, per cent of control for each of the compounds provided.
- measurement target: DCLK2 (human) (UniProt Q8N568)
- assay notes: KINOMEscan competition binding
- reported conditions: compound 10.0 µM

So for CCC(=O)N1CCN(c2ccc(-n3c(=O)ccc4cnc5ccc(-c6cnc7ccccc7c6)cc5c43)cc2C(F)(F)F)CC1 , the logged kinase still bound, per cent of control turned out to be 100%

What the record says about COc1ccc(-c2ccc3c(N4CCOCC4)nc(N4C[C@@H](C)O[C@@H](C)C4)nc3n2)cc1CO : kinase still bound, per cent of control is 100%

Note to self: kinase still bound, per cent of control recorded for COC(=O)Nc1ccc(-c2nc(N3CCOCC3)c3cnn(C4CCN(C(=O)OC)CC4)c3n2)cc1 was 95%

The compound identified as CC(C)n1nc(-c2cc3cc(O)ccc3[nH]2)c2c(N)ncnc21 registered its kinase still bound, per cent of control at 100%

* * *

I'd appreciate it if you could supply per cent of control values for the items below.
- measurement target: PHKG1 (human)
- reported conditions: compound 1.0 µM
Enter your answer as a number in %; do not include the unit.

// sample COc1ccc(-c2ccc3c(N4CCOCC4)nc(N4C[C@@H](C)O[C@@H](C)C4)nc3n2)cc1CO , its per cent of control was 89

Please fill in: per cent of control reported for COC(=O)Nc1ccc(-c2nc(N3CCOCC3)c3cnn(C4CCN(C(=O)OC)CC4)c3n2)cc1 = 108

GET /value?item= CCC(=O)N1CCN(c2ccc(-n3c(=O)ccc4cnc5ccc(-c6cnc7ccccc7c6)cc5c43)cc2C(F)(F)F)CC1 &field=per cent of control returns 110

per cent of control measured on CC(C)n1nc(-c2cc3cc(O)ccc3[nH]2)c2c(N)ncnc21 = 72

* * *

Kindly supply the reported kinase still bound, per cent of control values for the records listed here.
- measurement target: PAK3 (human)
- assay notes: KINOMEscan competition binding
- reported conditions: compound 10.0 µM
Note: unit % is implicit; provide only the numeric part.

For this compound ( COC(=O)Nc1ccc(-c2nc(N3CCOCC3)c3cnn(C4CCN(C(=O)OC)CC4)c3n2)cc1 ), measured kinase still bound, per cent of control is 83

Entry CCC(=O)N1CCN(c2ccc(-n3c(=O)ccc4cnc5ccc(-c6cnc7ccccc7c6)cc5c43)cc2C(F)(F)F)CC1 ; kinase still bound, per cent of control = 100

Lab note: measured kinase still bound, per cent of control of COc1ccc(-c2ccc3c(N4CCOCC4)nc(N4C[C@@H](C)O[C@@H](C)C4)nc3n2)cc1CO was 100

Lab book: kinase still bound, per cent of control of CC(C)n1nc(-c2cc3cc(O)ccc3[nH]2)c2c(N)ncnc21 noted as 59
